Biological target: T1, TRBP-D2 (Homo sapiens, UniProt Q15633 157-228)
T1 sequence: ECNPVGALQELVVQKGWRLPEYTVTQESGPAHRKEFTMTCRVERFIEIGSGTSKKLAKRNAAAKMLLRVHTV
Assay: ITC
measurement.name: Kd (µM)
Please state the figure in µM; there is no need to write the unit.

**Query** Need Kd, item pre-miR-155 (structured_RNA) RNA: GGAAUGCUAAUCGUGAUAGGGGUUUUUGCCUCCAACUGACUCCUACAUAUUAGCAUUCCCA
**Result** 3.7
